Each item that follows carries a reported GI50.
System: RPMI-8226
measurement_protocol: NCI tumour cell line growth inhibition, 48 h
Active and inactive are the calls of the source. Rule as the data show it: active = GI50 up to about 1.1 µM and inactive = higher.

molecule	measured_parameter	value
CS/C(=N\c1ccccc1Cl)NC(=O)c1ccc(Br)cc1	GI50	55.5 µM (inactive)

Any idea what GI50 was measured for Cc1cnoc1/N=C1\C=C(O)C(=O)c2ccccc21 ? 15.4 µM (inactive)

Same again, this time with COc1cc(/C=c2\sc3n(c2=O)C(c2ccc(Cl)cc2)C2=C(CCCC2C)N=3)cc(OC)c1OC (stereo not given) > 100 µM (inactive)

Same again, this time with CCOc1cccc2sc(N)nc12 > 100 µM (inactive)

Same again, this time with CN1CC[C@@]2(c3cccc(O)c3)CC(=O)/C(=C/c3ccccc3)[C@H]1C2.[O-][Cl+3]([O-])([O-])O 2.44 µM (inactive)

---

Tested on: M14
measurement_protocol: NCI tumour cell line growth inhibition, 48 h
Active and inactive are the calls of the source. No stated cut-off is given here; in the data, active = GI50 up to about 1.1 µM and inactive = higher.
measured_parameter: GI50

Any idea what GI50 was measured for COc1ccc(/C(Cl)=C(\C=O)c2ccc(OC)c(OC)c2)cc1OC ? > 100 µM (inactive)

Same again, this time with O=[N+]([O-])c1c2nc3n(c2cc2c1nc1n2CCC1)CCC3 > 100 µM (inactive)

Same again, this time with NC(=O)C(=O)N/N=C1\C(=O)N(c2ccc(Cl)cc2Cl)C(=O)C1C(=O)Nc1ccc(Cl)cc1Cl (stereo not given) > 100 µM (inactive)

Same again, this time with COc1ccc(C2OC(c3ccncc3)=NN2C)cc1F (stereo not given) > 100 µM (inactive)

Same again, this time with COc1cc(CCc2cccnc2)cc(OC)c1OC > 100 µM (inactive)

Same again, this time with CN(C)c1ccc(/N=N\c2cccc3ncccc23)cc1 61.7 µM (inactive)

Same again, this time with CN1CC[C@@]2(c3cccc(O)c3)CC(=O)/C(=C/c3ccccc3)[C@H]1C2.[O-][Cl+3]([O-])([O-])O 10.5 µM (inactive)

---

System: DU-145
measurement_protocol: NCI tumour cell line growth inhibition, 48 h
The source made the active and inactive calls. Rule as the data show it: active = GI50 up to about 1.1 µM and inactive = higher.
Give your call using only these classes: yes for active, no for inactive

Example entries begin here.
molecule	class
O=[N+]([O-])c1c2nc3n(c2cc2c1nc1n2CCC1)CCC3	no
N#CC(c1ccccc1)c1cccc2ccccc12 (configuration not stated)	no
Cc1ccc(C2SCc3nc4ccccc4n32)cc1 (configuration not stated)	no
CCn1c(=O)c2nc(SC)sc2n(-c2ccccc2)c1=O	no
N#CCC(=O)N/N=C\C(O)C(O)C(O)C(O)CO (configuration not stated)	no
CCN1C(=O)CS/C1=N\NC(=O)CSc1nc2ccccc2c(=O)n1CC	no
CC(C)NC(=O)OCCN=c1c2ccccc2ccc2ccccc12	no
CC(=O)c1sc2c(c1OC(=O)c1ccc(Cl)cc1)c(=O)n(-c1ccccc1)c(=S)n2-c1ccccc1	no
CCc1c(Cc2cc(C)cc(C)c2)n2c(nc1=O)SCC2CBr (configuration not stated)	no
O=c1c2c3ccccc3[nH]c2c2cccc3c2n1CCC3	no

Per the records of this test, what outcome belongs to CCOc1ccc2ccc3cccnc3c2n1 ? no

Same again, this time with CC1(C)OC(=O)N(c2ccccc2)C12C=Cc1cccc([N+](=O)[O-])c1O2 (configuration not stated) no

---

System: U-251
measurement_protocol: NCI tumour cell line growth inhibition, 48 h
The source made the active and inactive calls. Rule as the data show it: active = GI50 up to about 1.1 µM and inactive = higher.
Give your call using only these classes: label 1 = active, label 0 = inactive

compound	subject_of_test	class
Cc1ccc(C2SCc3nc4ccccc4n32)cc1 (stereo unspecified)	U-251	label 0

Per the records of this test, what outcome belongs to CSc1nc(Br)nc2ncn(C3CC(Oc4ccc(C)cc4)C(COc4ccc(C)cc4)O3)c12 (stereo unspecified) ? label 0

Same again, this time with COC(=O)C(=O)C(C(=O)C(=O)Nc1ccc(C)cc1C)c1nc2ccccc2nc1O (stereo unspecified) label 0

Same again, this time with C=CCNC(=O)CN(CC(=O)O)C1CCCCC1N(CC(=O)O)CC(=O)O (stereo unspecified) label 0

Same again, this time with NC(=O)C(=O)N/N=C1\C(=O)N(c2ccc(Cl)cc2Cl)C(=O)C1C(=O)Nc1ccc(Cl)cc1Cl (stereo unspecified) label 0

Same again, this time with N#CC(c1ccc(Cl)cc1)c1cccc(Cl)n1 (stereo unspecified) label 0

Same again, this time with Cc1c(C)n(-c2ccccc2)c2nc(S(C)(=O)=O)nc(S(C)(=O)=O)c12 label 0

Same again, this time with O=C1c2ccccc2-n2c1nc1ccc([N+](=O)[O-])cc1c2=O label 0

Same again, this time with CCc1nnc(-c2nsc3ccccc23)s1 label 0

Same again, this time with COC(=O)C1=C(C(=O)OC)C2C(C)=CC(C)=CN2C(C#N)=C(SC)S1 (stereo unspecified) label 0

Same again, this time with COC(=O)c1ccc(/C=C2\Cc3ccccc3C2=O)cc1 label 0

Same again, this time with Cc1ccc(NC(=O)CC/C(CC(=O)C(C)(C)C)=N\Nc2ccc([N+](=O)[O-])cc2[N+](=O)[O-])cc1C label 0

Same again, this time with Cc1cccc(/C=N/NC(=S)Nc2ccccc2)n1 label 0

Same again, this time with Cc1nc2ccc(NCCN(C)C)c3c(=O)c4cc(O)ccc4n1c23 label 1

Same again, this time with COc1cc2c(cc1OC)C1=CCC(c3ccccc3)[N+]1(C)CC2 (stereo unspecified) label 0
